Provenance of the data: the RNAGym collection of RNA variant scans (doi:10.7554/elife.90254)

// reported self-cleavage per item
B1: LINE1-full (parent)
chain: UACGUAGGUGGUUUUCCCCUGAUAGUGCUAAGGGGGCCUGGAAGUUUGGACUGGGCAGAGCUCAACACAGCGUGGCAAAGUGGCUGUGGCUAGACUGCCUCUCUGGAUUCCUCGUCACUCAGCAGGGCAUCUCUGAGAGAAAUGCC

Variants of: B1
ASSAY_NAME: self-cleavage, relative activity (ratio to wild type); higher = more cleavage; in vitro, sequencing; the parent is a self-cleaving ribozyme
Quick one: just the number, no unit, thanks!

Worked set:
• UACGUAGGUGGUUUUCCCCUGAUAGUGCUAAGGGGGCCUGGAAGUUUGGACUGGGCAGAGCUCAACACAGCGUGGCAAAGUGGCUGGGGCUAGGCUGCCUCUCUGGAUUCCUCGUCACUCAGCAGGGCAUCUCUGAGAGAAAUGCC [U87G A94G] = 0
• UACGUAGGUGGUUUCCCCCUGAUAGUGCUAAGGGGGCCUGGAAGUUUGGACUGGGCAGAGCUCAACACAGCGUGGCAAAGUGGCUGUGGCUAGACUGCCUCUCUGGAUUCCUCGUCACUCAGCAGGGCAUCUCUGAUAGAAAUGCC [U15C G137U] = 1.26
• UACGUAGGUGGUUUUCCCCUGAUAGUGCUAAAGAGGCCUGGAAGUUUGGACUGGGCAGAGCUCAACACAGCGUGGCAAAGUGGCUGUGGCUAGACUGCCUCUCUGGAUUCCUCGUCACUCAGCAGGGCAUCUCUGAGAGAAAUGCC [G32A G34A] = 0.73
• UACGUAGGUGGUUUUCCCCUGAUAGUGCUAAGGGGGCCUGGAAGUUUGGACUGGGCAGAGCUCAACACAGCGUGGCAAAGUGGCUGUGGCUAGUCUGCCUCUCUGGAUUCCUCGUCACUCAGCAGGGCAUCUCUGAGAGAAAUGCC [A94U] = 0.29
• UACGUAGGUGGUUUUCCCCUGAUGGUGCUAAGGGGGCCUGGAAGUUUGGACUGGGCAGAGCUCAACACAGCGUGGCAAAGUGGCUGUGGCUAGACUGCCUCUCUGGAUUCCUCGACACUCAGCAGGGCAUCUCUGAGAGAAAUGCC [A24G U115A] = 1.45
• UACGUAGGUGGUUUUCCCCUGAUAGUGCUAAGGGGGCCUGGAAGUUUGGACUGGGCAGAGCUCAACGCAGCGUGGCAAAGUGGCUGUGGCUAGACUGCCUCUCUGGAUUCCUCCUCACUCAGCAGGGCAUCUCUGAGAGAAAUGCC [A67G G114C] = 0.49
• UACGUAGGUGGUUUUCCCCUGAUAGUGCCAAGGGGGCCUGGAAGUUUGGACUGGGCAGAGCUCAACACAGCGUGGCAAAGUGGCUGUGGCUAGACUGCCUCUCUGGAUUCCUCGUCACUAAGCAGGGCAUCUCUGAGAGAAAUGCC [U29C C120A] = 1.24
• UACGUAGGUGGUUUUCCCCUGAUAGUGCUAAGGGGGCCUGGAAGUUUGGACCGGGCAGAGCUCAACACAGCGUGGCAAAGUGGCCGUGGCUAGACUGCCUCUCUGGAUUCCUCGUCACUCAGCAGGGCAUCUCUGAGAGAAAUGCC [U52C U85C] = 0.31

Reported self-cleavage ( CACGUAGGUGGUUUUCCCCUGAUAGUGCUAAGGGGGCCUGGAAGUUUGGACUGGGCAGAGCUCAACAUAGCGUGGCAAAGUGGCUGUGGCUAGACUGCCUCUCUGGAUUCCUCGUCACUCAGCAGGGCAUCUCUGAGAGAAAUGCC [U1C C68U] ) = 0.13

Reported self-cleavage ( UACGUAGGUGGUUUUCCCCUGAUAGUGCUAAGGGGGCCUGGAAGUUUGGACUGGGCAGAGCUCAACACAGCGUGGCACAGUGGCUGUGGCCAGACUGCCUCUCUGGAUUCCUCGUCACUCAGCAGGGCAUCUCUGAGAGAAAUGCC [A78C U91C] ) = 1.24

Reported self-cleavage ( UACGUAGGUGGUUUUCCCCUGAUAGUGCUAAGGGAGCCUGGAAGUUUGGACUGGGCAGAGCUCAACACAGCGUGGCAAAGUGGCUGUGGCUAGACUGCCUCUCUGGAUUCCUCGUCACUCAGCAGGGCAUCUCUGAGAGAAAUGCC [G35A] ) = 1.1

Reported self-cleavage ( UACGUAGGUGGUUCUCCCCUGAUAGUGCUAAGGGGGCCUGGAAGUUUGGACUGGGCAGAGCUCAACACAGCGUGGCGAAGUGGCUGUGGCUAGACUGCCUCUCUGGAUUCCUCGUCACUCAGCAGGGCAUCUCUGAGAGAAAUGCC [U14C A77G] ) = 1.73

Reported self-cleavage ( UACGUAGGUGGUUUUCCCCUGAUAGUGCUAAGGGGGCCUGGAAGUUUGGACUGGGCAGAGCUCAACACAGCGUGGCAAAGUGGCUGUGGCUAGACUGCCUCUCUGGGUUCCUCGUCACUCAGCGGGGCAUCUCUGAGAGAAAUGCC [A107G A124G] ) = 0.96

Reported self-cleavage ( UACGUAGGUGGUUUUCCCCUGAUAGUGCUAAGGGGGCCUGGAAGUUUGGACUGGGCAGAGCUCAACACAGCGUGGCAAAGUGGCUGUGGCUAGACUGCCUCCCUGGAUUCCUCGUCACUCAGCAGGGCAUCUCUGAGAGAACUGCC [U102C A142C] ) = 1.73
